# TEST SUMMARY: pKa value was evaluated
# Format: physicochemical
PROPERTY MEASURED: pKa

[
  {
    "COMPOUND": "Nc1ncnc2c1ncn2[C@@H]1O[C@H](COP(=O)(O)OP(=O)(O)CP(=O)(O)O)[C@@H](O)[C@H]1O",
    "PROPERTY MEASURED": "pKa",
    "MEASURED": 8.4
  },
  {
    "COMPOUND": "Nc1ncnc2c1ncn2[C@@H]1O[C@H](COP(=O)(O)OP(=O)(O)OP(=O)(O)O)[C@@H](O)[C@H]1O [ADENOSINE TRIPHOSPHATE]",
    "PROPERTY MEASURED": "pKa",
    "MEASURED": 7.1
  },
  {
    "COMPOUND": "Nc1ncnc2c1ncn2[C@@H]1O[C@H](COP(=O)(O)OP(=O)(O)C(F)(F)P(=O)(O)O)[C@@H](O)[C@H]1O",
    "PROPERTY MEASURED": "pKa",
    "MEASURED": 6.7
  },
  {
    "COMPOUND": "Nc1ncnc2c1ncn2C1O[C@H](COP(=O)(O)OP(=O)(O)C[As](=O)(O)O)[C@@H](O)[C@H]1O (some centres undefined)",
    "PROPERTY MEASURED": "pKa",
    "MEASURED": 9
  }
]

Values were extracted from ChEMBL document CHEMBL1130575.
